Recorded measurements of GI50, one per entry
tested on: LNCaP cells
Write it as a number; the unit µM goes unstated.

[[record]]
compound = "O=S(=O)(NC1(c2cc(Cl)ncc2Cl)CCNCC1)c1ccc(OC(F)(F)F)cc1"
property = "GI50"
reading = 28.8

[[record]]
compound = "O=C(NC1(c2ccc(Cl)cc2)CCNC1)c1ccc(OC(F)(F)F)cc1 (stereo not shown)"
property = "GI50"
reading = 23.3

[[record]]
compound = "O=S(=O)(N[C@H](CN1CC(N2CCC2)C1)c1ccc(F)cc1)c1ccc(OC(F)(F)F)cc1"
property = "GI50"
reading = 24.4


In: Provide the documented GI50 with LNCaP cells as the system for "O=S(=O)(N[C@H](c1ccc(Cl)cc1)C1CCNCC1)c1ccc(OC(F)(F)F)cc1"
Out: 11.3
